Exercise: state measured viability at 0.01 µM for each of the substances provided.
assay: Synergy of Shiva-1 and lysozyme, percent viability; assay type: cell-based, Pseudomonas aeruginosa; details: Pseudomonas aeruginosa
No end group written: not given here.
Report the value in % with no unit label.

Quick check: viability at 0.01 µM of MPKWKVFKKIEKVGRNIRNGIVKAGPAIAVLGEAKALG-NH2 (C-terminus assumed) [SB-37] ?
100

Quick check: viability at 0.01 µM of MPRWRLFRRIDRVGKQIKQGILRAGPAIALVGDARAVG [Shiva-1] ?
100

----------
Exercise: state measured LD50 BMKC for each of the substances provided.
tested on: BMKC; assay: Anti-cancer assay, MTT, LD50; assay type: cell-based; conditions: BMKC cloned melanoma line, 24 hours with peptide
No end group written: not given here.
Report the value in µg/mL with no unit label.

Quick check: LD50 BMKC of FAKKLAKKLKKLAKKLIGAVLKV-OH [SHIVA 11 [(1-16)ME(2-9]-COOH] ?
94

Quick check: LD50 BMKC of FAKFLAKFLKKAL-NH2 [P111, FAKFLAKFLKKAL-NH2] ?
26

Quick check: LD50 BMKC of KLAKKLAKLAKLAKAL-OH [P160, reference compound] ?
220

Quick check: LD50 BMKC of FAKKLLAKALKL-NH2 [P110] ?
400

Quick check: LD50 BMKC of FAKLLAKLAKKAL-NH2 [P54, FAKLLAKLAKKAL-NH2] ?
90

Quick check: LD50 BMKC of FALLKALLKKAL-NH2 [P177, FALLKALLKKAL-NH2] ?
310

Quick check: LD50 BMKC of FAKLLAKLAKLKL-NH2 [P66] ?
200

Quick check: LD50 BMKC of FAKLAKKALAKLL-NH2 [P148] ?
330

Quick check: LD50 BMKC of FAKKLAKKLAKLL-NH2 [P75] ?
24

Quick check: LD50 BMKC of KWKLAKKALALL-NH2 [P142] ?
38
